Data provenance is patent US6495699B2.

Experiment: Determination of inhibitor concentration in plasma after oral dosing
Type: in vivo, Sprague Dawley rats
Details: Sprague-Dawley, rat plasma, dose 50 mg/kg, vehicle A (molar equivalent of HCl in water)
Procedure: The dosing solution consisted of the inhibitor dissolved in either a molar equivalent of HCl in water (vehicle A), in 60% aq. propylene glycol (vehicle B), or in 2.8 mg/mL sodium bicarbonate in 60% aqueous propylene glycol (vehicle C), yielding a final concentration that ranged from 10-15 mg/ml. […] The supernatant was collected and the samples were analyzed by injecting 100 μl of supernatant onto HPLC. […]
MEASURED_METRIC: Cmax (ng/mL)
Please give a number only; it is taken to be in ng/mL.

Lookup result for `CC(C)(C)[C@@H](CO)NC(=O)[C@@H](CC(=O)O)n1ccc(-c2ccc(-c3ccncc3)cc2)c1` ; measured Cmax: 1600

----------
Assay: Determination of inhibitor concentration in plasma after oral dosing
Assay type: in vivo, Sprague Dawley rats
Conditions: Sprague-Dawley, rat plasma, dose 50 mg/kg, vehicle A, dosed as the benzyl ester prodrug
MEASURED_METRIC: AUC
Provide the measurement as a number trailed by its unit.

get_value(item= `CC1(C)COC(=O)[C@H]1NC(=O)[C@@H](CC(=O)O)n1ccc(-c2ccc(-c3ccncc3)cc2)c1` , readout=AUC) returns 4.42 µg·h/mL

----------
Here, each record is paired with measured pKi data.
Biological target: catalytic domain of human stromelysin (Hsln) (Homo sapiens, UniProt P08254)
Construct: The catalytic domain of human stromelysin (Hsln) was obtained by expression and purification of a C-terminally truncated prostromelysin-1
Sequence (P08254 100-272 limits assumed): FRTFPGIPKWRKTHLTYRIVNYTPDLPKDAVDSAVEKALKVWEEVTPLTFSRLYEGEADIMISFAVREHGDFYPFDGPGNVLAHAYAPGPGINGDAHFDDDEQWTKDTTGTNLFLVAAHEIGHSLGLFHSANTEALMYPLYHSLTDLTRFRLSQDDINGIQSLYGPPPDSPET
Test: Fluorometric MCA-peptide hydrolysis assay, stromelysin (Hsln)
Details: apparent Ki; 10 μM MCA peptide substrate, 37° C., pH 7.5; read-out: Hsln (Ki,app)
Interpret pKi as the negative base-10 log of the concentration measured in mol/L.

Known pKi results, listed for orientation:
{"columns": ["CHEMICAL_SMILES", "MEASURED_METRIC", "EXPERIMENTAL_RESULT"],
 "data": [
  ["O=C(C[C@H](C(=O)N[C@H](CO)Cc1ccccc1)n1ccc(-c2ccc(-c3ccccc3)cc2)c1)NO", "pKi", 9.16],
  ["O=C(O)C[C@H](C(=O)N[C@H](CO)c1ccccc1)n1ccc(-c2ccc(-c3ccncc3)cc2)c1", "pKi", 7.52],
  ["O=C(O)C[C@H](C(=O)N[C@@H]1c2ccccc2C[C@H]1O)n1ccc(-c2ccc(-c3ccncc3)cc2)c1", "pKi", 7.82]
]}

Tested system catalytic domain of human stromelysin (Hsln) (Homo sapiens, UniProt P08254); pKi recorded for `CC(C)C[C@H](NC(=O)[C@@H](CC(=O)O)c1ccn(-c2ccc(-c3ccc(C#N)cc3)cc2)c1)c1ncc[nH]1` was 7.75

----------
Assay: Determination of inhibitor concentration in plasma after oral dosing
Type: in vivo, Sprague Dawley rats
Conditions: Sprague-Dawley, rat plasma, dose 25 mg/kg, vehicle A (molar equivalent of HCl in water)
MEASURED_METRIC: AUC (ng·h/mL)
Please respond with the number in ng·h/mL and leave the unit unwritten.

Sure, the documented AUC for CC1(C)COC(=O)[C@H]1NC(=O)[C@@H](CC(=O)O)n1ccc(-c2ccc(-c3ccncc3)cc2)c1 [Example 6(c)] is 933

----------
Target: human progelatinase A (GelA), catalytic and fibronectin-like portion (Homo sapiens)
Construct: The catalytic and fibronectin-like portion of human progelatinase A (GelA) was expressed as a fusion protein with ubiquitin; ubiquitin; made in house; host or cells: E. coli
Sequence (P08253 110-465 limits assumed): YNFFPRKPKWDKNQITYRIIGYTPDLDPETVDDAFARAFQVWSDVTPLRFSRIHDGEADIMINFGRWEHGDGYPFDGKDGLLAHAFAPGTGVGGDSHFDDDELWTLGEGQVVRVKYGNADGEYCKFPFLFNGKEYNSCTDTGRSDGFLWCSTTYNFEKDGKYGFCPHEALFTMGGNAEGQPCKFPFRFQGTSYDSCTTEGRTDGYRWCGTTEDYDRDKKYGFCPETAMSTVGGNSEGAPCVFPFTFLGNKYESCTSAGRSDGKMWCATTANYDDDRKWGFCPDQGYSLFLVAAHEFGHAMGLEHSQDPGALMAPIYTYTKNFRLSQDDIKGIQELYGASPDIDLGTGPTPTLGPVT
Test: Fluorometric MCA-peptide hydrolysis assay, gelatinase A (GelA)
Format: biochemical
Conditions: apparent Ki; 10 μM MCA peptide substrate, 37° C., pH 7.5
Binning rule for recorded GelA (Ki,app): low value (below 0.4 nM), medium value (0.4 nM to below 6 nM), high value (6 nM or more)

Reference set, count: 5
{"columns": ["MOLECULE", "DISCRETE_LABEL"],
 "data": [
  ["O=C(O)C[C@H](C(=O)N[C@H](CO)Cc1ccccc1)c1ccc(-c2ccc(-c3ccccc3)cc2)o1 [Example 15(a)]", "high value"],
  ["CNC(=O)[C@@H](CC(=O)O)n1ccc(-c2ccc(-c3ccncc3)cc2)c1 [Example 7(d)]", "high value"],
  ["O=C(O)C[C@H](C(=O)N[C@H]1Cc2cn(c3ccccc23)CCOCCNC1=O)n1ccc(-c2ccccc2)c1 [Example 1(c)]", "medium value"],
  ["O=C(O)C(F)(F)F.O=C(O)C[C@H](C(=O)N[C@H](CO)Cc1c[nH]cn1)n1ccc(-c2ccc(-c3ccccc3)cc2)c1 [Example 1(g)]", "high value"],
  ["O=C(O)C[C@H](C(=O)N[C@H](CO)Cc1ccccc1)c1ccn(-c2ccc(-c3ccccc3)cc2)c1 [Example 13]", "medium value"]
]}

Into which bin does this molecule go? CC(C)C[C@H](NC(=O)[C@@H](CC(=O)O)n1ccc(-c2ccc(-c3ccncc3)cc2)c1)c1ncc[nH]1.O=CO [Example 7(c)]
low value

Could you place N#Cc1ccc(-c2ccc(-c3ccn([C@H](CC(=O)O)C(=O)N[C@H](CO)Cc4ccccc4)c3)cc2)cc1 [Example 4(a)] in its proper category? Many thanks.
medium value

// return the class label for CC(C)(C)[C@@H](CO)NC(=O)[C@@H](CC(=O)NO)n1ccc(-c2ccc(-c3ccncc3)cc2)c1 [Example 9]
low value

Form: Item = CC(C)(C)[C@H](NC(=O)[C@@H](CC(=O)O)n1ccc(-c2ccc(-c3ccc(C(N)=O)cc3)cc2)c1)C(=O)Nc1ccncc1 [Example 5(f)] ; Class = ?
low value

Class for CNC(=O)[C@@H](NC(=O)[C@@H](CC(=O)O)n1ccc(-c2ccncc2)c1)C(C)(C)C [Example 1(d)] ?
medium value

State the class of the molecule shown: CCC[C@H](C(=O)O)[C@H](C(=O)N[C@H](CO)Cc1ccccc1)n1ccc(-c2ccc(-c3ccccc3)cc2)c1 [Example 10(a)]
medium value

Record CC(C)C[C@H](NC(=O)[C@@H](CC(=O)O)c1ccn(-c2ccc(-c3ccc(C#N)cc3)cc2)c1)c1ncc[nH]1 [Example 14(c)] — which class?
low value

Please report the category associated with CC(C)(C)[C@H](NC(=O)[C@@H](CC(=O)O)n1ccc(-c2ccc(-c3ccncc3)cc2)c1)C(=O)Nc1ccncc1 [Example 7(b)] , nothing else.
low value

Exam item: assign COC(=O)c1ccc(NC(=O)[C@H](CC(C)C)NC(=O)[C@@H](CC(=O)O)n2ccc(-c3ccc(-c4ccccc4)cc3)c2)cc1 [Example 1(k)] to the correct category.
medium value

Which class holds CC(C)(C)[C@@H](CO)NC(=O)[C@@H](CC(=O)O)n1ccc(-c2ccc(-c3ccc(C(N)=O)cc3)cc2)c1 [Example 4(c)] ?
high value

Band of CNC(=O)[C@@H](NC(=O)C(CC(=O)O)c1ccc(-c2ccc(-c3ccccc3)cc2)o1)C(C)(C)C (stereo partly drawn) [Example 15(b)] ?
high value

Consider O=C(O)C[C@H](C(=O)N[C@H](CO)Cc1ccccc1)n1cc(-c2ccc(-c3ccccc3)cc2)cn1 [Example 16] . To which GelA (Ki,app) class does it belong?
high value

In plain terms, what class is CC(C)(O)C(CO)NC(=O)[C@@H](CC(=O)O)n1ccc(-c2ccc(-c3ccccc3)cc2)c1 (stereo in doubt) [Example 1(i)] ?
high value

Hello team, could you let me know which band the following molecule falls into: C=CC[C@H](C(=O)O)[C@H](C(=O)N[C@H](CO)C(C)(C)C)n1ccc(-c2ccc(-c3ccccc3)cc2)c1 [Example 12]
high value

Dear colleague, I would appreciate it if you could identify the bin for O=C(O)C[C@H](C(=O)N[C@H]1Cc2cn(c3ccccc23)CCOCCNC1=O)n1ccc(-c2ccc(-c3ccncc3)cc2)c1 [Example 7(a)] and reply at your convenience.
low value

Classify this molecule: CNC(=O)[C@@H](NC(=O)[C@@H](CC(=O)O)c1ccn(-c2ccc(-c3ccc(C#N)cc3)cc2)c1)C(C)(C)C [Example 14(b)]
low value

Bin? CC(=O)[C@H](CC(C)C)NC(=O)[C@@H](CC(=O)O)n1ccc(-c2ccc(-c3ccccc3)cc2)c1 [Example 2]
high value

Input CC(C)(C)[C@@H](CO)NC(=O)[C@@H](CC(=O)O)n1ccc(-c2ccc(-c3ccncc3)cc2)c1 [Example 5(a)] ; output its category
medium value

Which category fits this record: O=C(C[C@H](C(=O)N[C@H](CO)Cc1ccccc1)n1ccc(-c2ccc(-c3ccccc3)cc2)c1)NO [Example 8(a)]
low value

Which class is correct for the following molecule? O=C(O)C[C@H](C(=O)N[C@@H]1CCCC[C@H]1O)n1ccc(-c2ccc(-c3ccccc3)cc2)c1 [Example 1(h)]
high value
